// reported relative viability per item
tested on: SW 1573; assay: relative viability (nuclei count vs DMSO), 5 days (fraction); higher = more cells survive; details: first compound 0.02 µM
Measured Quantity: relative viability

* CN1CCN(CCOc2cc(OC3CCOCC3)c3c(Nc4c(Cl)ccc5c4OCO5)ncnc3c2)CC1 [Saracatinib] + Nc1nc2[nH]cc(CCc3ccc(C(=O)N[C@@H](CCC(=O)O)C(=O)O)cc3)c2c(=O)[nH]1 [Pemetrexed] (partner 0.2 µM) | 0.823
* CN1CCN(CCOc2cc(OC3CCOCC3)c3c(Nc4c(Cl)ccc5c4OCO5)ncnc3c2)CC1 [Saracatinib] + O=C(CCCCCCC(=O)Nc1ccccc1)NO [Vorinostat] (partner 1 µM) | 0.699
* CN1CCN(CCOc2cc(OC3CCOCC3)c3c(Nc4c(Cl)ccc5c4OCO5)ncnc3c2)CC1 [Saracatinib] + CC(=O)Nc1cccc(-n2c(=O)n(C3CC3)c(=O)c3c(Nc4ccc(I)cc4F)n(C)c(=O)c(C)c32)c1 [Trametinib] (partner 0.02 µM) | 0.507
* CCNC(=O)c1noc(-c2cc(C(C)C)c(O)cc2O)c1-c1ccc(CN2CCOCC2)cc1 [Luminespib] + CC(=O)Nc1cccc(-n2c(=O)n(C3CC3)c(=O)c3c(Nc4ccc(I)cc4F)n(C)c(=O)c(C)c32)c1 [Trametinib] (partner 0.02 µM) | 0.198

---

// reported relative viability per item
system: H3255; assay: relative viability (nuclei count vs DMSO), 5 days (fraction); higher = more cells survive; conditions: first compound 0.003162 µM
Measured Quantity: relative viability

- Cc1cn(-c2cc(NC(=O)c3ccc(C)c(Nc4nccc(-c5cccnc5)n4)c3)cc(C(F)(F)F)c2)cn1 [Nilotinib] + CC(=O)c1c(C)c2cnc(Nc3ccc(N4CCNCC4)cn3)nc2n(C2CCCC2)c1=O [Palbociclib] (partner 0.5 µM): 0.286
- Cc1cn(-c2cc(NC(=O)c3ccc(C)c(Nc4nccc(-c5cccnc5)n4)c3)cc(C(F)(F)F)c2)cn1 [Nilotinib] + Nc1ncn([C@H]2C[C@H](O)[C@@H](CO)O2)c(=O)n1 [Decitabine] (partner 2 µM): 0.659
- Cc1cn(-c2cc(NC(=O)c3ccc(C)c(Nc4nccc(-c5cccnc5)n4)c3)cc(C(F)(F)F)c2)cn1 [Nilotinib] + CS(=O)(=O)CCNCc1ccc(-c2ccc3ncnc(Nc4ccc(OCc5cccc(F)c5)c(Cl)c4)c3c2)o1 [Lapatinib] (partner 2 µM): 0.224
- Cc1cn(-c2cc(NC(=O)c3ccc(C)c(Nc4nccc(-c5cccnc5)n4)c3)cc(C(F)(F)F)c2)cn1 [Nilotinib] + O=C(c1cc(Cc2n[nH]c(=O)c3ccccc23)ccc1F)N1CCN(C(=O)C2CC2)CC1 [Olaparib] (partner 8 µM): 0.561

---

tested on: NCI-H1563; assay: relative viability (nuclei count vs DMSO), 5 days (fraction); higher = more cells survive; conditions: first compound 6.325 µM
Measured Quantity: relative viability

• Cc1csc(=NC2CCCCC2)n1/N=C/c1ccc(O)c(O)c1O [MIM1] + CS(=O)(=O)CCNCc1ccc(-c2ccc3ncnc(Nc4ccc(OCc5cccc(F)c5)c(Cl)c4)c3c2)o1 [Lapatinib] (partner 2 µM) = 0.825
• Cc1csc(=NC2CCCCC2)n1/N=C/c1ccc(O)c(O)c1O [MIM1] + COc1cccc2cc(-c3nc([C@H]4CC[C@H](C(=O)O)CC4)n4ncnc(N)c34)[nH]c12 [OSI-027] (partner 0.5 µM) = 0.72
• Cc1csc(=NC2CCCCC2)n1/N=C/c1ccc(O)c(O)c1O [MIM1] + Nc1nc2[nH]cc(CCc3ccc(C(=O)N[C@@H](CCC(=O)O)C(=O)O)cc3)c2c(=O)[nH]1 [Pemetrexed] (partner 0.2 µM) = 0.786
• Cc1csc(=NC2CCCCC2)n1/N=C/c1ccc(O)c(O)c1O [MIM1] + COc1cc2c(Oc3ccc(NC(=O)C4(C(=O)Nc5ccc(F)cc5)CC4)cc3F)ccnc2cc1OCCCN1CCOCC1 [Foretinib] (partner 0.25 µM) = 0.819

Source: the supplement of paper PMC10307832
